# System: HeLa
# assay_comment: Primary qHTS to identify gynecologic anti-cancer compounds using libraries of approved drugs and bioactive compounds (AID 1345084); also: nearly all actives have a fitted effect of over 55% in size
# assay_context: Gynecologic cancer cell panel viability, ATPlite luminescence, 48 h; series mostly up to 57.5 µM
Inconclusive results are not listed. Activity calls are given as the source filed them. Calls follow the shape of the dose curve; as a rule, active = well fitted cell-killing curve with a large enough effect; inconclusive = small, poorly fitted or top-dose-only effect, or effect the other way; inactive = flat fitted curve, though single readings scatter.
Classes used: active, inactive

{"molecule": "CO[C@H]1/C=C/C=C/C=C/C[C@H](OC(=O)[C@@H](C)NC(=O)C2CCCCC2)[C@H](C)[C@@H](O)/C(C)=C/CCc2cc(O)cc(c2)NC(=O)C1", "class": "active"}
{"molecule": "CCCCNc1ncc2c(-c3ccc(CN4CCN(C)CC4)cc3)cn(C3CCC(O)CC3)c2n1 (stereo not given)", "class": "active"}
{"molecule": "O=C1NC(=O)C(c2cn(-c3ccccc3)nc2-c2ccc(F)cc2)N1 (stereo not given)", "class": "inactive"}
{"molecule": "CC(C)CC1NC(=O)C2CC3(O)c4ccccc4NC3N2C1=O (stereo not given)", "class": "inactive"}
{"molecule": "COC(=O)C12C(=O)C(C)=C(O)C1(C)C(C)=CC1C3(CO)CCC(O)C(C)(C)C3CCC12C (stereo not given)", "class": "inactive"}

----------
# System: HeLa
# assay_comment: Primary qHTS to identify gynecologic anti-cancer compounds using libraries of approved drugs and bioactive compounds (AID 1345084); also: nearly all actives have a fitted effect of over 55% in size; as to activity change, negative = cytotoxicity: % is scaled to controls: 0 for no effect and ±100 for the full control effect
# assay_context: Gynecologic cancer cell panel viability, ATPlite luminescence, 48 h; series mostly up to 57.5 µM
# Description: National Center for Advancing Translational Sciences [NCATS] Assay Overview: Chemotherapeutic drug responses vary from cancer to cancer and from patient to patient. […] ATPlite is a luminescence based assay reliant on the conversion of a luciferase substrate to light in the presence of ATP. As a cytotoxic compound will suppress growth and decrease the number of cells, the concentration of ATP will decrease, and less light signal will be detected in the well. […]
Inconclusive results are not listed. Activity calls are given as the source filed them. The call rests on the fitted dose curve; in most records, active means well fitted cell-killing curve with a large enough effect; inconclusive means small, poorly fitted or top-dose-only effect, or effect the other way; inactive means flat fitted curve, though single readings scatter.

{"molecule": "CC1(C)CC[C@]23CO[C@@]4(CCC5[C@@]6(C)CC[C@H](O[C@@H]7OC[C@H](O[C@@H]8O[C@H](CO)[C@@H](O)[C@H](O)[C@H]8O)[C@H](O)[C@H]7O[C@@H]7O[C@H](CO)[C@@H](O[C@@H]8O[C@H](CO)[C@@H](O)[C@H](O)[C@H]8O)[C@H](O)[C@H]7O)[C@@](C)(CO)C6CC[C@@]5(C)[C@]4(C)C[C@H]2OC2OCC(O)C(O)C2O)C3C1 (some centres not stated)", "study_system": "HeLa", "activity change, negative = cytotoxicity": "-27.3% [at 6.55 µM] (inactive)"}
{"molecule": "CC1OC(OC2C(C)OC(OC3C(O)C(CO)OC(O[C@H]4CC[C@@]5(C)C(CC[C@]6(C)C5CC=C5C7[C@@H](C)[C@H](C)CC[C@]7(C(=O)O)CC[C@]56C(=O)O)C4(C)C)C3O)C(O)C2O)C(O)C(O)C1O (some centres not stated)", "study_system": "HeLa", "activity change, negative = cytotoxicity": "9.15% [at 11.6 µM] (inactive)"}

----------
# Test system: CASKI
# assay_comment: Primary qHTS to identify gynecologic anti-cancer compounds using libraries of approved drugs and bioactive compounds (AID 1345084); also: nearly all actives have a fitted effect of over 55% in size
# assay_context: Gynecologic cancer cell panel viability, ATPlite luminescence, 48 h; series mostly up to 57.5 µM
Inconclusive results are not listed. The source made the active and inactive calls. Calls come from the whole dose curve; as a rule, active = well fitted cell-killing curve with a large enough effect; inconclusive = small, poorly fitted or top-dose-only effect, or effect the other way; inactive = flat fitted curve, though single readings scatter. Where a SMILES comes first, the peptide text is derived from it. Bridges are numbered along the chain shown (N, C = ends). [ ]: non-standard residue; d: D form. NMeY = CN[CH](Cc1ccc(O)cc1)C(=O)O
Outcome codes: active, inactive

{"compound": "CC1=CCC(C(C)(C)O[C@@H]2O[C@H](CO[C@@H]3O[C@@H](C)[C@H](O)[C@@H](O)[C@H]3O)[C@@H](O)[C@H](O)[C@H]2O)CC1 (some centres not stated)", "study_system": "CASKI", "class": "inactive"}
{"compound": "COc1ccc(CC2NCCc3c2[nH]c2ccc(C)cc32)cc1OC (configuration not stated)", "study_system": "CASKI", "class": "inactive"}
{"compound": "C=CC(C)(CC/C=C(\\C)C(=O)OC)OC1OC(COC(=O)CC(C)(O)CC(=O)O)C(OC2OC(CO)C(O)C(O)C2O)C(O)C1O (configuration not stated)", "study_system": "CASKI", "class": "inactive"}
{"compound": "N#Cc1ccc(C(=O)N2CCC3(CC2)N=C(N)c2c(F)ccc(F)c2N3)cn1", "study_system": "CASKI", "class": "inactive"}
{"compound": "CCC(C)C1NC(=O)C2CCCN2C(=O)C(NC(C)=O)C(C)OC(=O)C(Cc2ccc(OC)cc2)N(C)C(=O)C2CCCN2C(=O)C(C(C)C)NC1=O (configuration not stated) (Ac-TPIVP[NMeY](Me); ester 1-C; configuration not given here)", "study_system": "CASKI", "class": "inactive"}
{"compound": "CS(=O)(=O)N1CCC(NC(=O)c2[nH]ncc2NC(=O)c2c(Cl)cccc2Cl)CC1", "study_system": "CASKI", "class": "active"}
{"compound": "CCOC(=O)C(CCc1ccccc1)NC1CSC(c2cccs2)CN(CC(=O)O)C1=O (configuration not stated)", "study_system": "CASKI", "class": "inactive"}
